System: OVCAR-3 ovarian
Test: NCI tumour cell line growth inhibition, 48 h; in the data active = GI50 below about 0.43 µM; inactive = the rest
*1 amine or outer side, *2 acyl side, *3 side chain or, on linkers, in order; H or OH if unused. Where a SMILES comes first, the peptide text is derived from it. Bridges are numbered along the chain shown (N, C = ends). Roman numbers before positions name the chains, in order. X23 = CCCCCCCCCCCCCCC(=O)NC(CCCCN[*:2])C(=O)CN1CCCC1C(=O)[*:1]
Outcome codes: active, inactive

MOLECULE: CCCCCCCCCCCCNC(=O)[C@H]1CSC(c2cc(Br)cs2)N1 (stereo partly specified)
SYSTEM_UNDER_TEST: OVCAR-3 ovarian
ASSIGNED_LABEL: inactive
--
MOLECULE: CCCCCCCCCCCCCCC(=O)NC(CCCCNC(=O)C1CCCN1C(=O)C(CCCCN)NC(=O)C(CCCCN)NC(=O)C(CCCCN)NC(=O)C(CCCNC(=N)N)NC(=O)C(CCCCN)NC(=O)C(N)C(C)C)C(=O)CN1CCCC1C(=O)NCC(=O)NC(Cc1ccccc1)C(=O)N1CCCC1C(=O)NC(CO)C(=O)NC(Cc1ccc(O)cc1)C(=O)NC(CCCCN)C(=O)NC(CC(C)C)C(=O)NC(CCCNC(=N)N)C(=O)N1CCCC1C(=O)NCC(N)=O (stereo unspecified) (I: GFPSYKLRPG-NH2 / II: H-VKRKKKP; linker I:N-II:C via X23; configuration not given here)
SYSTEM_UNDER_TEST: OVCAR-3 ovarian
ASSIGNED_LABEL: inactive
--
MOLECULE: Cc1ccc(-n2nnc3c(sc4ccccc43)c2=O)cc1
SYSTEM_UNDER_TEST: OVCAR-3 ovarian
ASSIGNED_LABEL: inactive
--
MOLECULE: Nc1nccc2c1ncn2C1C=C(CO)C(O)C1O (stereo unspecified)
SYSTEM_UNDER_TEST: OVCAR-3 ovarian
ASSIGNED_LABEL: inactive
--
MOLECULE: COc1cc2c(cc1OCc1ccccc1)N=C[C@@H]1C[C@@H](F)CN1C2=O
SYSTEM_UNDER_TEST: OVCAR-3 ovarian
ASSIGNED_LABEL: active
--
MOLECULE: c1cc2ccc3cc2cc1CNCCOCCNCc1ccc2ccc(cc2c1)CNCCOCCNC3
SYSTEM_UNDER_TEST: OVCAR-3 ovarian
ASSIGNED_LABEL: inactive
